target desc: Nitric oxide synthase, inducible (Mus musculus)
assay procedure: Inhibition of iNOS activity in LPS-stimulated mouse RAW264.7 cells assessed as conversion of L-[…] arginine to L-[3H] citruline per mg of protein at 25 ug/ml after 24 hrs
Format: cell-based
Provide the reported Activity of each item.
Number in pmol/min, nothing else.

Please report the measured Activity for CC1(C)C[C@H]2C3=CC[C@@H]4[C@@]5(C)CC[C@H](O)[C@](C)(CO)[C@@H]5CC[C@@]4(C)[C@]3(C)CC[C@@]2(C)[C@H](O)[C@@H]1O tested on Nitric oxide synthase, inducible (Mus musculus).
27.7

Please report the measured Activity for CC1(C)C[C@H]2C3=CC[C@@H]4[C@@]5(C)CC[C@H](O[C@@H]6O[C@H](C(=O)O)[C@@H](O)[C@H](O)[C@H]6O[C@@H]6O[C@H](CO)[C@@H](O)[C@@H](O)[C@H]6O)[C@](C)(CO)[C@@H]5CC[C@@]4(C)[C@]3(C)CC[C@@]2(C)[C@H](O[C@@H]2OC[C@H](O)[C@@H](O)[C@H]2O[C@@H]2O[C@H](CO)[C@@H](O)[C@@H](O)[C@H]2O)[C@@H]1O tested on Nitric oxide synthase, inducible (Mus musculus).
23.6

Please report the measured Activity for CC1(C)C[C@@H](O)[C@]2(C)CC[C@]3(C)C(=CC[C@@H]4[C@@]5(C)CC[C@H](O)[C@](C)(CO)[C@@H]5CC[C@]43C)[C@@H]2C1 tested on Nitric oxide synthase, inducible (Mus musculus).
27.4

Please report the measured Activity for CC1(C)C[C@H]2C3=CC[C@@H]4[C@@]5(C)CC[C@H](O[C@@H]6O[C@H](C(=O)O)[C@@H](O)[C@H](O)[C@H]6O[C@@H]6O[C@H](CO)[C@H](O)[C@H](O)[C@H]6O[C@@H]6O[C@H](CO)[C@@H](O)[C@H](O)[C@H]6O)[C@](C)(CO)[C@@H]5CC[C@@]4(C)[C@]3(C)CC[C@@]2(C)[C@H](O[C@@H]2OC[C@H](O)[C@@H](O)[C@H]2O[C@@H]2O[C@H](CO)[C@@H](O)[C@@H](O)[C@H]2O)[C@@H]1O tested on Nitric oxide synthase, inducible (Mus musculus).
22.3

Please report the measured Activity for C[C@@H]1O[C@@H](O[C@H]2[C@H](O[C@H]3[C@H](O[C@H]4CC[C@@]5(C)[C@@H](CC[C@]6(C)[C@@H]5CC=C5[C@@H]7CC(C)(C)C[C@@H](O)[C@]7(C)CC[C@]56C)[C@@]4(C)CO)O[C@H](C(=O)O)[C@@H](O)[C@@H]3O)O[C@H](CO)[C@H](O)[C@@H]2O)[C@H](O)[C@H](O)[C@H]1O tested on Nitric oxide synthase, inducible (Mus musculus).
24

###

Provide the reported Activity of each item.
target desc: UniProt P29477
assay procedure: Inhibition of iNOS activity in LPS-stimulated mouse RAW264.7 cells assessed as conversion of L-[…] arginine to L-[3H] citruline per mg of protein at 50 ug/ml after 24 hrs
Assay type: cell-based
Number in pmol/min, nothing else.

Return value of Activity for input CC1(C)C[C@H]2C3=CC[C@@H]4[C@@]5(C)CC[C@H](O[C@@H]6O[C@H](C(=O)O)[C@@H](O)[C@H](O)[C@H]6O[C@@H]6O[C@H](CO)[C@@H](O)[C@@H](O)[C@H]6O)[C@](C)(CO)[C@@H]5CC[C@@]4(C)[C@]3(C)CC[C@@]2(C)[C@H](O[C@@H]2OC[C@H](O)[C@@H](O)[C@H]2O[C@@H]2O[C@H](CO)[C@@H](O)[C@@H](O)[C@H]2O)[C@@H]1O [SOYASAPONIN A2] , no commentary.
19

Return value of Activity for input CC1(C)C[C@H]2C3=CC[C@@H]4[C@@]5(C)CC[C@H](O)[C@](C)(CO)[C@@H]5CC[C@@]4(C)[C@]3(C)CC[C@@]2(C)[C@H](O)[C@@H]1O [SOYASAPOGENOL A] , no commentary.
27

Return value of Activity for input CC1(C)C[C@@H](O)[C@]2(C)CC[C@]3(C)C(=CC[C@@H]4[C@@]5(C)CC[C@H](O)[C@](C)(CO)[C@@H]5CC[C@]43C)[C@@H]2C1 [SOYASAPOGENOL B] , no commentary.
26.5

###

target desc: Nitric oxide synthase, inducible (Mus musculus) (UniProt P29477)
Sequence (whole entry): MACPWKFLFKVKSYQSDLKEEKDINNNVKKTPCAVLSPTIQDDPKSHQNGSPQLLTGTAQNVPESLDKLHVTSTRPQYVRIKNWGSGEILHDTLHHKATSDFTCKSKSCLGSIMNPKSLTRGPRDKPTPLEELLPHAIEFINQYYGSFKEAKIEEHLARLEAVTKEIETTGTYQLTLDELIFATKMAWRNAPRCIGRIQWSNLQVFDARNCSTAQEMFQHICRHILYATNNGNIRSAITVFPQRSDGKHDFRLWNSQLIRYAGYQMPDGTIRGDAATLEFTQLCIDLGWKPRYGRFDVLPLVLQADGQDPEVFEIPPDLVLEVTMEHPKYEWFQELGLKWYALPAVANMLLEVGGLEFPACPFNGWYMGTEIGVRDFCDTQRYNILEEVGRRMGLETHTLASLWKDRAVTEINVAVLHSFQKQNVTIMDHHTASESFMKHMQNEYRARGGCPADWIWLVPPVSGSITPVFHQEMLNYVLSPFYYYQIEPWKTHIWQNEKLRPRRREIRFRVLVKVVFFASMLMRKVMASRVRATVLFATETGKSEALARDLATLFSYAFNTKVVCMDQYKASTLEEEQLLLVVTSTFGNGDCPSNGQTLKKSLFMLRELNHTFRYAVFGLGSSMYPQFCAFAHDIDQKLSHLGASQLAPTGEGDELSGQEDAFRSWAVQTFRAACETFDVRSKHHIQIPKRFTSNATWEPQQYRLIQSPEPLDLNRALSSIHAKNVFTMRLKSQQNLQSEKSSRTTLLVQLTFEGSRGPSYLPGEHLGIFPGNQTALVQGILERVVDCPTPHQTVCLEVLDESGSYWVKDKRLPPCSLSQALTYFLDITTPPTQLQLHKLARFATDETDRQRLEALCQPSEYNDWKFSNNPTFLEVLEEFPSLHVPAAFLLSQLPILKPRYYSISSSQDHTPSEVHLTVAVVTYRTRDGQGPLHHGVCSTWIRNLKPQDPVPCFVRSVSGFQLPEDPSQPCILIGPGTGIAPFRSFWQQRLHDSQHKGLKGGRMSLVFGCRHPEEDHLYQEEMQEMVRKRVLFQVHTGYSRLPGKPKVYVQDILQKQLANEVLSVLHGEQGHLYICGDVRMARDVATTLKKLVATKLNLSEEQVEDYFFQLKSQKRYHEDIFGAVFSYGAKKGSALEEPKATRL
assay procedure: Inhibition of iNOS activity in LPS-stimulated mouse RAW264.7 cells assessed as conversion of L-[…] arginine to L-[3H] citruline per mg of protein at 200 ug/ml after 24 hrs
Format: cell-based
Provide the reported Activity of each item.
Number in pmol/min, nothing else.

Return value of Activity for input CC1(C)C[C@H]2C3=CC[C@@H]4[C@@]5(C)CC[C@H](O[C@@H]6O[C@H](C(=O)O)[C@@H](O)[C@H](O)[C@H]6O[C@@H]6O[C@H](CO)[C@H](O)[C@H](O)[C@H]6O[C@@H]6O[C@H](CO)[C@@H](O)[C@H](O)[C@H]6O)[C@](C)(CO)[C@@H]5CC[C@@]4(C)[C@]3(C)CC[C@@]2(C)[C@H](O[C@@H]2OC[C@H](O)[C@@H](O)[C@H]2O[C@@H]2O[C@H](CO)[C@@H](O)[C@@H](O)[C@H]2O)[C@@H]1O [SOYASAPONIN A1] , no commentary.
6.2

Return value of Activity for input CC1(C)C[C@H]2C3=CC[C@@H]4[C@@]5(C)CC[C@H](O[C@@H]6O[C@H](C(=O)O)[C@@H](O)[C@H](O)[C@H]6O[C@@H]6O[C@H](CO)[C@@H](O)[C@@H](O)[C@H]6O)[C@](C)(CO)[C@@H]5CC[C@@]4(C)[C@]3(C)CC[C@@]2(C)[C@H](O[C@@H]2OC[C@H](O)[C@@H](O)[C@H]2O[C@@H]2O[C@H](CO)[C@@H](O)[C@@H](O)[C@H]2O)[C@@H]1O [SOYASAPONIN A2] , no commentary.
9.3

Return value of Activity for input C[C@@H]1O[C@@H](O[C@H]2[C@H](O[C@H]3[C@H](O[C@H]4CC[C@@]5(C)[C@@H](CC[C@]6(C)[C@@H]5CC=C5[C@@H]7CC(C)(C)C[C@@H](O)[C@]7(C)CC[C@]56C)[C@@]4(C)CO)O[C@H](C(=O)O)[C@@H](O)[C@@H]3O)O[C@H](CO)[C@H](O)[C@@H]2O)[C@H](O)[C@H](O)[C@H]1O [SOYASAPONIN I] , no commentary.
9.2
